Cited source: patent US8440701B2

What melting point was measured for each of the following?
Numbers only, in °C.

Req: Which melting point value is on record for CCNc1cc(-c2nc(Nc3cccc(Cl)c3)nn2C[C@@H](O)CC)ccn1 [Compound E2] ?
Resp: 161.99

Each molecule below has a recorded value; state its melting point.
1. CCNc1cc(-c2nc(Nc3cccc(Cl)c3)nn2C[C@H](O)CC)ccn1 [Compound E29]
2. CCCC(O)Cn1nc(Nc2ccc(F)c(F)c2)nc1-c1ccnc(C)c1 (single isomer, unassigned) [Compound E15]

Resp:
[158.66, 133.1]

Each molecule below has a recorded value; state its melting point.
1. CCCC(O)Cn1nc(Nc2cccc(Cl)c2)nc1-c1cc(C)nc(C)c1 (single isomer, unassigned) [Compound E23]
2. CCC(O)Cn1nc(Nc2cc(OC)cc(C(F)(F)F)c2)nc1-c1ccnc(C)c1 (single isomer, unassigned) [Compound E28]

Resp:
[127.44, 117.16]

Req: Which melting point value is on record for CCCCC(O)Cn1nc(Nc2ccc(F)c(F)c2)nc1-c1cc(C)nc(C)c1 (single isomer, unassigned; (-)) [Compound E4] ?
Resp: 134.6

====

property_measured: melting point (°C)
Numbers only, in °C.

Guide cases for melting point, answers given:
Req: Which melting point value is on record for CC[C@H](O)Cn1nc(Nc2ccc(F)c(F)c2F)nc1-c1cc(C)nc(C)c1.Cl ?
Resp: 237.44

Req: Do the same for CCC(O)Cn1nc(Nc2ccc(F)c(F)c2)nc1-c1ccnc(C)c1 (single isomer, unassigned) [Compound E6] please
Resp: 142.72

Req: Do the same for CCCCC(O)Cn1nc(Nc2ccc(F)c(F)c2)nc1-c1ccnc(C)c1 (racemic) please
Resp: 137.96

Each molecule below has a recorded value; state its melting point.
1. CCCC(O)Cn1nc(Nc2ccc(F)c(F)c2)nc1-c1cc(C)nc(C)c1 (single isomer, unassigned) [Compound E14]
2. CCCC(O)Cn1nc(Nc2ccc(F)c(F)c2)nc1-c1ccnc(C)c1 (single isomer, unassigned) [Compound E16]
3. CCC(O)Cn1nc(Nc2cc(OC)cc(C(F)(F)F)c2)nc1-c1ccnc(C)c1 (single isomer, unassigned) [Compound E20]
4. CCCCC(O)Cn1nc(Nc2ccc(F)c(F)c2)nc1-c1cc(C)nc(C)c1 (single isomer, unassigned; (+)) [Compound E5]
5. CC[C@H](O)Cn1nc(Nc2ccc(F)c(F)c2)nc1-c1cc(C)nc(C)c1 [Compound E1]
6. CCNc1cc(-c2nc(Nc3ccc(F)c(F)c3)nn2CC(O)CC)ccn1 (stereo not drawn)
7. CCC(O)Cn1nc(Nc2ccc(F)c(F)c2)nc1-c1ccnc(C)c1 (single isomer, unassigned) [Compound E26]

Resp:
1. 139.48
2. 134.82
3. 120.54
4. 135
5. 166.04
6. 156.18
7. 145.29

====

property_measured: melting point

Guide cases for melting point, answers given:
Req: Which melting point value is on record for CCC(O)Cn1nc(Nc2ccc(F)c(F)c2)nc1-c1ccnc(NCCOC)c1 (centres unmarked) [Compound E9] ?
Resp: 137.06 °C

Req: Do the same for CCCC(O)Cn1nc(Nc2ccc(F)c(F)c2)nc1-c1cc(C)nc(C)c1 (single isomer, unassigned) [Compound E13] please
Resp: 141.14 °C

Req: Do the same for CCC(O)Cn1nc(Nc2cccc(Cl)c2)nc1-c1ccnc(C)c1 (centres unmarked) [Compound E17] please
Resp: 144.31 °C

Req: Do the same for CC[C@H](O)Cn1nc(Nc2ccc(F)c(C)c2)nc1-c1ccnc(C)c1 [Compound E19] please
Resp: 133.85 °C

Could you now look at the following compound, please?
Req: Which melting point value is on record for CC[C@H](O)Cn1nc(Nc2cc(OC)cc(C(F)(F)F)c2)nc1-c1cc(C)nc(C)c1 [Compound E30] ?
Resp: 166.05 °C
